// data source = patent US20060189522A1

tested.target: T1, GLP-1 receptor in rat hypothalamic membrane preparations (rat, UniProt P32301 22-463)
T1 construct: whole, on cells; Native receptor in a rat hypothalamic membrane preparation, not intact cells and not a recombinant construct; also called GLP-receptor; GLP-IR
T1 sequence (looked up): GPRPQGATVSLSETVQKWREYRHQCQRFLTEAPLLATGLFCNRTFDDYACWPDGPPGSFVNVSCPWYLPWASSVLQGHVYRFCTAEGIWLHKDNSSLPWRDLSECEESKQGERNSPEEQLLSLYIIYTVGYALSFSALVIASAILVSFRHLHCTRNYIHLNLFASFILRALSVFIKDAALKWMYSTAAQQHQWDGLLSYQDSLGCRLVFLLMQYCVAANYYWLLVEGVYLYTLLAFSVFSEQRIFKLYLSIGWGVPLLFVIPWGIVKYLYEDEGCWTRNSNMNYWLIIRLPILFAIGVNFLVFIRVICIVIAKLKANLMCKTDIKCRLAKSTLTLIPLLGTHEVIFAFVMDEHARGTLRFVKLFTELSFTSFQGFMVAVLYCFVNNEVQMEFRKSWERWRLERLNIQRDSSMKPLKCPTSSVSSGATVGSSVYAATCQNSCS
assay.explanation: competition with [125I]GLP-1 (100 pM) on rat hypothalamic membranes, radioligand displacement
readout.name: IC50

[ask] Fill in the blank: the reported IC50 of HSQGTFTSDYSKYLDSRRAQDFVQWLMNTKRNKNNIA (Bought from IAF BioChem Pharma) [human oxyntomodulin (OXM)] is ____.
[reply] 8.2 nM
